tested on: SK-MEL-5 melanoma; assay: NCI tumour cell line growth inhibition, 48 h
For each of the compounds below, state its GI50.

# annotated cases, reported GI50 shown
>  <COMPOUND>
Clc1cccc(Cc2cn3cc(-c4ccccc4)nc3s2)c1Cl

>  <MEASURED_ON>
SK-MEL-5 melanoma

>  <GI50>
> 100 µM

$$$$
>  <COMPOUND>
O=C(CCl)N1c2ccccc2Oc2ccc3ccccc3c21

>  <MEASURED_ON>
SK-MEL-5 melanoma

>  <GI50>
1.59 µM

$$$$
>  <COMPOUND>
CCCCCCCCSC1=CC(=O)c2nc3ccccc3c3ccnc1c23

>  <MEASURED_ON>
SK-MEL-5 melanoma

>  <GI50>
98.8 µM

$$$$

Please go through the list and note GI50 for each compound.
1. CC1=C(C#N)C23C(=O)c4ccccc4C(O)=C2C(=O)C=CC3(O)N1Cc1ccccc1 (stereo unspecified)
2. CN(C)CCCNC1=C(Cl)C(=O)c2ccccc2C1=O
3. C=C(CNCCO)[C@@H]1CC[C@]2(CO)CC[C@]3(C)[C@H](CC[C@@H]4[C@@]5(C)CCC(N)C(C)(C)[C@@H]5CC[C@]43C)[C@@H]12 (stereo partly specified)

## Output
18 µM
1.6 µM
1.73 µM

====

tested on: KM12 colon; test: NCI tumour cell line growth inhibition, 48 h
For each of the compounds below, state its TGI.

>  <COMPOUND>
N#CC(C#N)=c1ccc(=C2NCC3CCCN23)cc1 (configuration not stated)

>  <TGI>
> 100 µM

$$$$
>  <COMPOUND>
CSc1ccccc1C#C/C=C\C#Cc1ccccc1N1CCCC1=O

>  <TGI>
> 17.6 µM

$$$$

Please go through the list and note TGI for each compound.
1. C=CCc1cc(OC)c2c(c1)C(O)CC(c1ccc(OC)c(OC)c1)O2 (configuration not stated)
2. COc1ccccc1CCN1CCN(CCCc2ccccc2)CC1
3. C=C1C[C@@H]2CC[C@@]34CC5O[C@H]6C(O[C@H]7CC[C@H](CC(=O)O[C@@H]8[C@@H](C)[C@@H]9O[C@@H]%10C[C@]%11(C[C@@H]%12O[C@]%13(C[C@H](C)[C@@H]%14O[C@@H]%15CC(C(O)CO)O[C@@H]%15C[C@@H]%14O%13)C[C@H](C)[C@@H]%12O%11)O[C@@H]%10C[C@@H]9O[C@H]8CC8O[C@@H](CC[C@@H]1O2)C[C@@H](C)C8(O)CO)O[C@@H]7[C@@H]6O3)[C@H]5O4 (some centres not stated)
4. COc1ccc(NC(=S)Nc2cc(C)cc(C)n2)cc1
5. COC1(c2ccc(Cl)cc2)SC=C(C)n2c1noc2=O (configuration not stated)

## Output
1: > 100 µM; 2: > 100 µM; 3: > 1 µM; 4: > 100 µM; 5: > 100 µM

Please go through the list and note TGI for each compound.
1. CN1Cc2ccccc2S(=O)(=O)n2cccc2C1=O
2. CN(C)CCCN1c2ccc([N+](=O)[O-])cc2CCc2cccc([N+](=O)[O-])c21
3. CSC(=N/C=C/c1ccccc1)SC
4. C=CC[C@H]1O[Si](C(C)(C)C)(C(C)(C)C)[C@H](C)[C@H]1C
5. COc1ccc2c(c1)C1(C=N2)CCN(C(C)=O)CC1
6. COc1ccc(NC(=O)c2cc(OC)cc(OC)c2)cc1
7. O=C(NCCNc1nccc(-c2c(-c3cccc(O)c3)nc3sccn23)n1)c1ccccc1O

## Output
1: > 100 µM; 2: 28.9 µM; 3: > 100 µM; 4: > 100 µM; 5: > 100 µM; 6: > 100 µM; 7: 15.7 µM

Please go through the list and note TGI for each compound.
1. C=Cc1nc2c(Cl)ncnc2n1Cc1ccccc1
2. O=C(O)C(Cc1ccccc1)N1C(=O)N/C(=C\c2ccc(F)cc2)C1=O (configuration not stated)
3. O=C(N/C(=C\c1cc(Cl)ccc1Cl)c1nc2[nH]c(=S)[nH]c(=O)c2[nH]1)c1ccccc1
4. COc1ccc(/C=C\c2cc(OC)c3c(c2)OCO3)c(O)c1O
5. S=C1NCCN1
6. O=C1/C(=C/c2ccc([N+](=O)[O-])cc2)COc2ccc(O)c(O)c21
7. C[n+]1c2ccccc2c(NCC(=O)O)c2ccccc21
8. CCOC(=O)c1ncn2c1[nH]c(=S)c1ccccc12

## Output
11.5 µM
> 100 µM
73.6 µM
21.4 µM
> 100 µM
3.47 µM
> 100 µM
> 100 µM

Please go through the list and note TGI for each compound.
1. Cc1cc(=O)n2[nH]c(-c3ccc(C(C)(C)C)cc3)cc2n1
2. COc1cc2cnc3c4cc(OC(C)C)c(OC)cc4ccc3c2cc1OC
3. O=C1C2=C(SCCS2)C(=O)c2ccccc21
4. O=C1c2cccnc2-c2nc(-c3ccccc3[N+](=O)[O-])cc3c2c1nc1ccccc13
5. O=[N+]([O-])C(=C(Cl)Cl)C(Cl)=C(Cl)Cl
6. CCNC1C2(CCCCC2)NC(=O)C12CCCCC2 (configuration not stated)

## Output
["53.9 µM", "> 100 µM", "3.18 µM", "> 55 µM", "5.51 µM", "> 100 µM"]

Please go through the list and note TGI for each compound.
1. O=C(O)CCC(NC(=O)c1ccc(OCc2nc3cc(C(F)(F)F)ccc3nc2-c2ccccc2)cc1)C(=O)O (configuration not stated)
2. O=C(CSC(=S)N1CCCCC1)Nc1nc2c(s1)CCCC2
3. NC(N)=Nc1ccc(-c2ccc(N=C(N)N)cc2)cc1

## Output
1: > 100 µM; 2: > 100 µM; 3: > 100 µM

## Input Specify measured TGI for CC1=C(C(=O)Nc2ccccc2C)C(c2ccco2)C(C(=O)Nc2ccccc2C)=C(C)N1C .
## Output > 100 µM

====

tested on: OVCAR-5 ovarian; test: NCI tumour cell line growth inhibition, 48 h
READOUT_KIND: TGI

# annotated cases, reported TGI shown
>  <COMPOUND>
O=C(Nc1ccc(F)cc1F)c1cc(I)ccc1O

>  <MEASURED_ON>
OVCAR-5 ovarian

>  <ENDPOINT_VALUE>
> 100 µM

$$$$
>  <COMPOUND>
CCCCS(=O)(=O)CCC(N)P(=O)(O)O (stereo not drawn)

>  <MEASURED_ON>
OVCAR-5 ovarian

>  <ENDPOINT_VALUE>
> 100 µM

$$$$
>  <COMPOUND>
Cc1ccc(Cc2n[nH]c(=O)[nH]2)cc1

>  <MEASURED_ON>
OVCAR-5 ovarian

>  <ENDPOINT_VALUE>
> 100 µM

$$$$

Please go through the list and note TGI for each compound.
1. N#Cc1cccc2c1Sc1ccccc1N2
2. Cc1ccc(N=N/C(=N/NC(=O)c2cc(Cl)ccc2O)c2ccc(N(CCC#N)CCC#N)cc2C)cc1

## Output
72.8 µM
> 100 µM

Please go through the list and note TGI for each compound.
1. Cn1c(=O)c2c3ccccc3n(C)c2n(C)c1=O
2. N#CC(C#N)=c1ccc(=C2NCC3CCCN23)cc1 (stereo not drawn)

## Output
["> 100 µM", "> 100 µM"]

Please go through the list and note TGI for each compound.
1. O=C(/C=C/c1ccccc1Cl)c1ccc(Cl)c(Cl)c1
2. NC1CCC(Nc2nc(NCc3ccc(-c4ccco4)nc3)c3ncn(C4CCCC4)c3n2)CC1 (stereo not drawn)
3. CC(=O)OC1COC(n2c(=S)n(-c3ccc(C)cc3)c(=O)c3ccccc32)C(OC(C)=O)C1OC(C)=O (stereo not drawn)
4. CC(=O)N1[C@H](C(=O)O)CS[C@H]1c1ccncc1
5. N/C(=N\N=C/c1ccc(O)c(O)c1O)NO
6. O=C1c2cccnc2-c2nc(-c3ccccc3[N+](=O)[O-])cc3c2c1nc1ccccc13

## Output
["32.8 µM", "14.1 µM", "> 100 µM", "> 100 µM", "> 73.6 µM", "33.4 µM"]

====

system: T-47D breast; test: NCI tumour cell line growth inhibition, 48 h
For each of the compounds below, state its TGI.

# annotated cases, reported TGI shown
>  <ITEM_SMILES>
CC[C@@]12CCCN3CC[C@]4(c5cccc(OC)c5N(C(C)=O)[C@@H]4CC1)[C@H]32

>  <MEASURED_ON>
T-47D breast

>  <ENDPOINT_VALUE>
> 100 µM

$$$$
>  <ITEM_SMILES>
CNC(=O)c1ccccc1Nc1nc(Nc2ccc(N3CCOCC3)cc2OC)ncc1Cl

>  <MEASURED_ON>
T-47D breast

>  <ENDPOINT_VALUE>
> 36.1 µM

$$$$

As a next step, examine the compound that follows.
## Input Write TGI of CCOC(=O)Nc1nc2ccc(OCC)cc2s1 ; system used: T-47D breast
## Output > 100 µM
